# Assay name: in vitro
# Experimental setup: human, Lot #2 Mean A- > B Papp
Quantity measured: Papp at 2 h, 10 μM
Units required after the number.

Recorded result, CC(=O)CC(c1ccccc1)c1c(O)c2ccccc2oc1=O (stereo not shown) [Warfarin] , Papp at 2 h, 10 μM: 24.3 ×10⁻⁶ cm/s

----------
# Target under test: BCRP (Homo sapiens, UniProt Q9UNQ0)
# Sequence (Q9UNQ0 whole entry): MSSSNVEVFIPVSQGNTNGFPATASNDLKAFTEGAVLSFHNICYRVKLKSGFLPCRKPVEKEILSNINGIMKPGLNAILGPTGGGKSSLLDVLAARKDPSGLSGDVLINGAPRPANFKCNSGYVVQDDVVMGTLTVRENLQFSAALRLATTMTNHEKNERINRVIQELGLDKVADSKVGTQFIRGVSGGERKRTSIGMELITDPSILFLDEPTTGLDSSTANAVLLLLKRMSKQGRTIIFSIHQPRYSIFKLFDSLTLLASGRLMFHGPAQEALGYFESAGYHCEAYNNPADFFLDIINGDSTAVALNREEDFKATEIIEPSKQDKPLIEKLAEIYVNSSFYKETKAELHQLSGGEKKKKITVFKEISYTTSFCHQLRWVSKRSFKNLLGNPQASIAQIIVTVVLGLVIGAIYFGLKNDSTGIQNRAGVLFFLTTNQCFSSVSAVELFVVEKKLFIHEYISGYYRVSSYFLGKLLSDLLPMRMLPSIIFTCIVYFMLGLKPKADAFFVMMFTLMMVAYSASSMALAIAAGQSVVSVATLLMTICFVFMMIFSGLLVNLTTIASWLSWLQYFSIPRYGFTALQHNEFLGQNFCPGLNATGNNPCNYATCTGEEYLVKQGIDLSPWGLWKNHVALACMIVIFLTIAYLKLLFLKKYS
# Assay name: in vitro
Quantity measured: Papp B→A at 2 h, 10 μM (×10⁻⁶ cm/s)
Give just the numeric value; ×10⁻⁶ cm/s need not be written.

Given item `O=C1CN(/N=C/c2ccc([N+](=O)[O-])o2)C(=O)N1` , the value recorded as its Papp B→A at 2 h, 10 μM is 28.4
